From: patent US20220177604A1

As shown below, each of these binders has a reported IC50 value.
Target: human immunoglobulin E (hIgE) (human) (UniProt P01854)
Sequence (P01854 whole entry): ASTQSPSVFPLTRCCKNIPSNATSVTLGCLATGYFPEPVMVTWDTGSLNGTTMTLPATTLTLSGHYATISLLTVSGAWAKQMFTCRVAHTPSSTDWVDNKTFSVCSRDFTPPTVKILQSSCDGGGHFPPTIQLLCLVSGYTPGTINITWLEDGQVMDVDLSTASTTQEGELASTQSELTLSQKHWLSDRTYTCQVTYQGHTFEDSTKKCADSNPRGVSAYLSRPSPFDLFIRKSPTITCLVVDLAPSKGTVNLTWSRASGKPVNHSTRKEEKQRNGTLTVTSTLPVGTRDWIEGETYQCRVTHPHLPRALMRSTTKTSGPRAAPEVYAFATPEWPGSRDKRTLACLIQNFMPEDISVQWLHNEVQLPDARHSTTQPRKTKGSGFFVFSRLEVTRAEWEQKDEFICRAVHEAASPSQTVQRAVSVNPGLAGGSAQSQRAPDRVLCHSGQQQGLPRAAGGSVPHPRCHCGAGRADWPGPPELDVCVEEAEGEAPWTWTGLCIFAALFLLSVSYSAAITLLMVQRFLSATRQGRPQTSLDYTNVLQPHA
Assay: competition ELISA, hIgE to coated hFcεRIα, pH 6
Numbers only; they are read as µg/mL.

Recorded results for 2 binders are shown here.
- 18B9His-hIgG1-WT (antibody, V domains shown) VH: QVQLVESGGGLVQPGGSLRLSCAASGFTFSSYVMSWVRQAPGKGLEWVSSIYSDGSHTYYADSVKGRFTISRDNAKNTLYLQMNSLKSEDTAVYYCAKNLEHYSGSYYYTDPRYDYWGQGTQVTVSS VL: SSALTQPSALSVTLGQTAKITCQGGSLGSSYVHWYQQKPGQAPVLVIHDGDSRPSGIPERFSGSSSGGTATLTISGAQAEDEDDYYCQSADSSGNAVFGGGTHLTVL: 3.02
- 13E4-hIgG1-WT (antibody, V domains shown) VH: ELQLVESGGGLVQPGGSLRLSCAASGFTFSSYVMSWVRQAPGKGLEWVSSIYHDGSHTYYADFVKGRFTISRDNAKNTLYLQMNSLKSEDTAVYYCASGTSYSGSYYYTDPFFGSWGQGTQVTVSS VL: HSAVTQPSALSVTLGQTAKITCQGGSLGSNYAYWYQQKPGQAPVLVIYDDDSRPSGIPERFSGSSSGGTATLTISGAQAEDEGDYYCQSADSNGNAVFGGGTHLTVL: 0.0114

// moving on: another record for IC50
According to the records, this binder 18E2His2-hIgG1-WT (antibody, V domains shown) VH: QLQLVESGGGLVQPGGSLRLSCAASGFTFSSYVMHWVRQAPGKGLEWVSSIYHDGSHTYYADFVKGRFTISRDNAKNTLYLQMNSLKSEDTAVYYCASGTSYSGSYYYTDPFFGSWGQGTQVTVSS VL: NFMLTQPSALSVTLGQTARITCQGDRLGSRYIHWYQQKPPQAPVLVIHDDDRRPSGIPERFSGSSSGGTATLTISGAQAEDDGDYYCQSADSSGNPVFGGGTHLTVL displays IC50 of 77.2
